This listing pairs sequences with measured PBM binding z-score.
# Test system: PPARg:RXRa 90nM:30nM, anti-RXR (NR concentration 90 nM, RXRa partner concentration 30 nM)
# ASSAY_REMARKS: PBM binding z-score (relative to random genomic background probes); higher = stronger binding; sequences stand for … in GC…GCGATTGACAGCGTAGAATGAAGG
Please respond with just the number, no unit label.

Use the examples below as a reference point.
{"columns": ["BIOSEQUENCE", "TARGET_OR_TEST_SYSTEM", "REPORTED_RESULT"],
 "data": [
  ["CAAACAAGGTCAAGAGGTCAAAGTCCGCTTCCCG", "PPARg:RXRa 90nM:30nM, anti-RXR (NR concentration 90 nM, RXRa partner concentration 30 nM)", 7.7],
  ["CGTCAAAGTTCAACTAAGGTAGCGTAAAGCACGC", "PPARg:RXRa 90nM:30nM, anti-RXR (NR concentration 90 nM, RXRa partner concentration 30 nM)", 4.03],
  ["TCTTGTAGATCAGGAGGTTAAGAAAGCTGGCCAA", "PPARg:RXRa 90nM:30nM, anti-RXR (NR concentration 90 nM, RXRa partner concentration 30 nM)", 2.11],
  ["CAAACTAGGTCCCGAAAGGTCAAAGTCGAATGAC", "PPARg:RXRa 90nM:30nM, anti-RXR (NR concentration 90 nM, RXRa partner concentration 30 nM)", 4.36],
  ["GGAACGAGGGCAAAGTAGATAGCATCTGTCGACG", "PPARg:RXRa 90nM:30nM, anti-RXR (NR concentration 90 nM, RXRa partner concentration 30 nM)", 2.23],
  ["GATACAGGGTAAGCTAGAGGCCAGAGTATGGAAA", "PPARg:RXRa 90nM:30nM, anti-RXR (NR concentration 90 nM, RXRa partner concentration 30 nM)", -0.0554],
  ["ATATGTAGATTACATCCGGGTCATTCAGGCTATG", "PPARg:RXRa 90nM:30nM, anti-RXR (NR concentration 90 nM, RXRa partner concentration 30 nM)", 1],
  ["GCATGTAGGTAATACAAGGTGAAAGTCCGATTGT", "PPARg:RXRa 90nM:30nM, anti-RXR (NR concentration 90 nM, RXRa partner concentration 30 nM)", 0.981],
  ["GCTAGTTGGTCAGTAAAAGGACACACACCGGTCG", "PPARg:RXRa 90nM:30nM, anti-RXR (NR concentration 90 nM, RXRa partner concentration 30 nM)", -0.0124],
  ["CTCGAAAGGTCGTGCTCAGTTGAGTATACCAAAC", "PPARg:RXRa 90nM:30nM, anti-RXR (NR concentration 90 nM, RXRa partner concentration 30 nM)", 2.53]
]}

Report PBM binding z-score for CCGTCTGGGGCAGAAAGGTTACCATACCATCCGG please.
0.988

What do we get for ATCTCTAGGTAAAAGTTCAGTGAATCCCGAGGAT ?
8.39
